assay: Ability to compete with […] for rat cortical and hippocampal membrane glutamate binding site.; format: tissue-based, Hippocampus
experimental_endpoint: pIC50
Scale: negative log10 of molar concentration, which is what pIC50 denotes.

The molecule identified as `O=C(O)CCc1c(C(=O)O)[nH]c2ccc(Cl)cc12` registered its pIC50 at 4.60

Looking up `O=C(O)CCc1c(C(=O)O)[nH]c2cccc(Cl)c12` , I found its pIC50 recorded as 4.22

Entry `O=C(O)c1cc(O)c2c(Cl)cc(Cl)cc2n1` ; pIC50 = 4.92

Short answer for `O=C(O)COc1cc(C(=O)O)nc2ccccc12` : pIC50 was 3.15

pIC50 measured on O=C(O)c1cc2ccccc2[nH]1 [INDOLE-2-CARBOXYLIC ACID] = 2.38

Sure, the documented pIC50 for `O=C(O)CCc1c(C(=O)O)[nH]c2cccc(F)c12` is 4.29

Lookup result for `O=C(O)CCc1c(C(=O)O)[nH]c2ccccc12` ; measured pIC50: 4.47

Entry O=C(O)c1cc(=O)c2ccccc2[nH]1 [TRANSTORINE] — recorded pIC50 = 4.15

Recorded result, `COc1ccc2c(CCC(=O)O)c(C(=O)O)[nH]c2c1` , pIC50: 3.85

pIC50 in this record for `O=C(O)CCc1c(C(=O)O)[nH]c2cc(Cl)cc(Cl)c12` : 3.45

Summary for this molecule, `O=C(O)CSc1c(C(=O)O)[nH]c2ccccc12` : pIC50 is 4.80

response.value for `O=C(O)CCc1c(C(=O)O)[nH]c2cc(Cl)ccc12` (field: pIC50) = 3.55

* * *

target: Glutamate NMDA receptor (Rattus norvegicus) (UniProt P35439+Q00959+Q00960+Q00961+Q62645+Q8VHN2+Q9R1M7); test: Ratio of the inhibitory activity against […] for rat cortical and hippocampal membrane glutamate binding site to [3H]glycine for rat cortical and hippocampal membrane binding site.; assay type: tissue-based; conditions: Hippocampus
experimental_endpoint: Ratio
// print number alone

>>> measured_value("O=C(O)c1cc2ccccc2[nH]1 [INDOLE-2-CARBOXYLIC ACID]")
40
>>> measured_value("O=C(O)CCc1c(C(=O)O)[nH]c2ccccc12")
1
>>> measured_value("O=C(O)CCc1c(C(=O)O)[nH]c2ccc(Cl)cc12")
2
>>> measured_value("O=C(O)COc1cc(C(=O)O)nc2ccccc12")
28

The compound listed as `O=C(O)CSc1c(C(=O)O)[nH]c2ccccc12` has a reported Ratio of 1.6

* * *

biological target: Glutamate receptor ionotropic, kainate; test: The compound was evaluated […] for the competitive binding against [3H]kainate for rat cortical and hippocampal membrane glutamate binding site.
experimental_endpoint: IC50 (µM)
Could you give me the number in µM? Just the number is fine.

Entry `O=C(O)CCc1c(C(=O)O)[nH]c2cc(Cl)cc(Cl)c12` : IC50 on Glutamate receptor ionotropic, kainate = 418

* * *

biological target: Glutamate NMDA receptor (Rattus norvegicus) (UniProt P35439+Q00959+Q00960+Q00961+Q62645+Q8VHN2+Q9R1M7); test: Ratio of the inhibitory activity against […] for rat cortical and hippocampal membrane glutamate binding site to [3H]glycine for rat cortical and hippocampal membrane binding site.; format: tissue-based; conditions: Hippocampus
Ratio listing for selected compounds.
Please reply with the number alone, leaving off any unit.

Recorded Ratio, per entry:
>>> measured_value("COc1ccc2c(CCC(=O)O)c(C(=O)O)[nH]c2c1")
11
>>> measured_value("O=C(O)c1cc(O)c2c(Cl)cc(Cl)cc2n1")
80
>>> measured_value("O=C(O)CCc1c(C(=O)O)[nH]c2cccc(Cl)c12")
10
>>> measured_value("O=C(O)CCc1c(C(=O)O)[nH]c2cc(Cl)ccc12")
140

Shifting focus to the compound that follows.
For `O=C(O)CCc1c(C(=O)O)[nH]c2cccc(F)c12` the compound record lists Ratio as 3

* * *

target: Glutamate NMDA receptor; experiment: Ability to compete with [3H]glycine for strychnine-insensitive binding sites on rat cortical and hippocampal membrane
// classify: if (IC50 < 4 µM) MET else NOT MET

Study these solved cases before continuing.
>>> label_class("O=C(O)CCc1c(C(=O)O)[nH]c2c1ccc1ccccc12")
"NOT MET"
>>> label_class("O=C(O)CCc1c(C(=O)O)[nH]c2ccc(Cl)cc12")
"NOT MET"
>>> label_class("COc1ccc2c(CCC(=O)O)c(C(=O)O)[nH]c2c1")
"NOT MET"
>>> label_class("O=C(O)COc1cc(C(=O)O)nc2ccccc12")
"NOT MET"
>>> label_class("O=C(O)CCc1c(C(=O)O)[nH]c2cc([N+](=O)[O-])ccc12")
"MET"
>>> label_class("O=C(O)CCc1c(C(=O)O)[nH]c2cccc(F)c12")
"NOT MET"
>>> label_class("O=C(O)CCc1c(C(=O)O)[nH]c2cc(Cl)cc(Cl)c12")
"MET"
>>> label_class("O=C(O)CCc1c(C(=O)O)[nH]c2c(Cl)cccc12")
"NOT MET"

IN: Does the reported IC50 of the following compound sit strictly below 4 µM? `CS(=O)(=O)Nc1ccc2c(CCC(=O)O)c(C(=O)O)[nH]c2c1`
OUT: NOT MET

IN: Find out if reported IC50 for `O=C(O)CCc1cc(C(=O)O)nc2ccccc12` is less than 4 µM
OUT: NOT MET

* * *

experiment: Ability to compete with […] for rat cortical and hippocampal membrane glutamate binding site.; assay type: tissue-based, Hippocampus
pIC50: −log10 of the molar value.
experimental_endpoint: pIC50

Previously resolved entries follow.
>>> measured_value("O=C(O)CCc1cc(C(=O)O)nc2ccccc12")
"< 4.00"
>>> measured_value("O=C(O)CCc1c(C(=O)O)[nH]c2c(Cl)cccc12")
"< 3.00"
>>> measured_value("O=C(O)c1cc2c(Cl)cc(Cl)cc2[nH]1")
"< 3.00"

Now for the compound whose pIC50 we want.
// `Cn1c(C(=O)O)c(CCC(=O)O)c2c(Cl)cc(Cl)cc21` : pIC50 value = < 4.00

* * *

biological target: Glutamate NMDA receptor (Rattus norvegicus) (UniProt P35439+Q00959+Q00960+Q00961+Q62645+Q8VHN2+Q9R1M7); experiment: Ratio of the inhibitory activity against […] for rat cortical and hippocampal membrane glutamate binding site to [3H]glycine for rat cortical and hippocampal membrane binding site.; assay type: tissue-based; conditions: Hippocampus
experimental_endpoint: Ratio

>>> measured_value("Cn1c(C(=O)O)c(CCC(=O)O)c2c(Cl)cc(Cl)cc21")
"> 2"
>>> measured_value("O=C(O)CCc1c(C(=O)O)[nH]c2c(Cl)cccc12")
"> 1"

Okay, next one:
Sure, the documented Ratio for `O=C(O)c1cc2c(Cl)cc(Cl)cc2[nH]1` is > 150

* * *

molecular target: Glutamate NMDA receptor; test: Ability to compete with [3H]glycine for strychnine-insensitive binding sites on rat cortical and hippocampal membrane
pIC50: −log10 of the molar value.
Entry flag: Yes if pIC50 reaches 5; No if it does not.

Check out these entries, answers already filled in.
>>> label_class("O=C(O)CCc1c(C(=O)O)[nH]c2cc(F)cc(F)c12")
"Yes"
>>> label_class("O=C(O)CCc1c(C(=O)O)[nH]c2ccc3ccccc3c12")
"No"
>>> label_class("O=C(O)CSc1c(C(=O)O)[nH]c2cc(Cl)cc(Cl)c12")
"Yes"
>>> label_class("O=C(O)CCc1c(C(=O)O)[nH]c2ccccc12")
"No"
>>> label_class("O=C(O)CCc1c(C(=O)O)[nH]c2cc(Oc3ccccc3)ccc12")
"No"
>>> label_class("O=C(O)CCc1c(C(=O)O)[nH]c2cccc([N+](=O)[O-])c12")
"No"
>>> label_class("O=C(O)CCc1c(C(=O)O)[nH]c2cc(F)ccc12")
"Yes"
>>> label_class("Cn1c(C(=O)O)c(CCC(=O)O)c2c(Cl)cc(Cl)cc21")
"No"

IN: Textbook exercise: given the entry `O=C(O)c1cc(O)c2c(Cl)cc(Cl)cc2n1` , state whether its pIC50 is greater than or equal to 5.
OUT: Yes

IN: Exam item: decide whether the reported pIC50 for `COc1cc(OC)c2c(CCC(=O)O)c(C(=O)O)[nH]c2c1` is at least 5.
OUT: No

IN: Given the entry `O=C(O)CCc1c(C(=O)O)[nH]c2cc(Cl)ccc12` , answer whether its pIC50 meets or surpasses 5.
OUT: Yes

* * *

molecular target: Glutamate NMDA receptor; assay: Ability to compete with [3H]glycine for strychnine-insensitive binding sites on rat cortical and hippocampal membrane
Below is a list of entries, each paired with its recorded pIC50 value.
Scale explanation: pIC50 corresponds to minus log10 of a concentration expressed in moles per litre.

// pIC50 (Glutamate NMDA receptor) for `O=C(O)CSc1c(C(=O)O)[nH]c2ccccc12` = 4.92

Response field pIC50 (Glutamate NMDA receptor) for item `O=C(O)CCc1c(C(=O)O)[nH]c2cc(C(F)(F)F)ccc12` : 5.10

# pIC50 measured on Glutamate NMDA receptor for item `O=C(O)CCc1c(C(=O)O)[nH]c2cccc(C(F)(F)F)c12` = 4.89

Ref: ChEMBL document CHEMBL1126038
